The values you see were collected from ChEMBL document CHEMBL3576784.

- protocol.summary: Inhibition of metallo-beta-lactamase NDM1 (unknown origin) expressed in Escherichia coli BL21(DE3) assessed as cefalexin V antimicrobial MIC incubated at 37 degC for 12 hrs by macrodilution (tube) broth method (reference value: 4 ug/mL)
property.label: MIC (µg/mL)
Value expressed in µg/mL; do not type the unit.

Some compounds with known MIC results, for comparison:
molecule.smiles: O=C(CSc1nnc(-c2ccccc2C(=O)O)[nH]1)NCc1ccccc1
property.label: MIC
unit.annotation: µg/mL
readout.number: 4

molecule.smiles: O=C(CSc1nnc(-c2ccccc2C(=O)O)[nH]1)Nc1cccc(Cl)c1
property.label: MIC
unit.annotation: µg/mL
readout.number: 4

molecule.smiles: O=C(CSc1nnc(-c2ccccc2C(=O)O)[nH]1)Nc1nc2ccccc2[nH]1
property.label: MIC
unit.annotation: µg/mL
readout.number: 4

Moving on to the next compound.
The reported value for O=C(CSc1nnc(-c2ccccc2C(=O)O)[nH]1)Nc1ccc(Cl)cc1 in terms of MIC is 4
